Assay: Inhibition of human recombinant FBPase-mediated fructose-6-phosphate formation by coupled spectrophotometric assay
pIC50: −log10 of the molar value.
propertyName: pIC50

Solved entries (count: 3):
molecule="Nc1ncnc2c1ncn2[C@@H]1O[C@H](COP(=O)(O)O)[C@@H](O)[C@H]1O [ADENOSINE PHOSPHATE]" testvalue=5.89
molecule=COc1ccc(CC(=O)Nc2cccc(-c3nnc(-c4ccc(C)cc4)o3)c2)cc1OC testvalue=5.35
molecule=Cc1ccc(-c2nnc(-c3cccc(NC(=O)CCCN4CCOCC4)c3)o2)cc1 testvalue=5.30

[a] Cc1ccc(-c2nnc(-c3cccc(NC(=O)CCCCN4CCOCC4)c3)o2)cc1
[b] Cc1ccc(-c2nnc(-c3cccc(NC(=O)CCCCCN4CCOCC4)c3)o2)cc1
[c] COc1ccc(CC(=O)Nc2cccc(-c3nnc(-c4cccc(Cl)c4)o3)c2)cc1OC
Input: Which order do these items take when sorted by rising pIC50? List them. List the labels, following the order given in the request.
Output: c, a, b
(c: 4.81, a: 5.30, b: 5.60)
